test system: Wolbachia pipientis; experiment: Anti-Wolbachia Cell-Based Screen; type: functional; design: scale not given: in the data most compounds retested in dose-response had high values; conditions: 5 µM
About 13,000 (27%) of roughly 48,000 compounds showed an effect of 50% or more. The list shows a part of the results.
readout_type: Percent Effect (%)
Write the number in % without appending the unit.

Previously resolved entries follow.
According to the records, this molecule CCCN(CCC)C1(Cc2cc(-c3cccc(O)c3)on2)COC1 displays Percent Effect of -7.184

According to the records, this molecule Cc1nn(C)cc1NC(=O)CC1CCN(C(=O)Cc2ccccc2)CC1 displays Percent Effect of 152.2

Others:
According to the records, this molecule CCCN1CC2(CCN(C)CC2)CC1C(=O)NCc1cc(C)nn1C (stereo not given) displays Percent Effect of 6.557

According to the records, this molecule CCN(C(=O)CN1CCCC1c1cccs1)c1ccccc1C (stereo not given) displays Percent Effect of 5.729

According to the records, this molecule Cc1cnn(CC2CN(CCS(=O)(=O)c3ccccc3)CCO2)c1 (stereo not given) displays Percent Effect of 5.078

According to the records, this molecule Cc1cnn(CC2CCCN2c2ncnc3ccccc23)c1 (stereo not given) displays Percent Effect of -22.63

According to the records, this molecule CC(C)C(C)(C#N)NC(=O)Cn1nnc(-c2cc3ccccc3o2)n1 (stereo not given) displays Percent Effect of -0.9006

According to the records, this molecule Cn1cccc(NC(=O)N2CCC(Cc3ccccc3)C2)c1=O (stereo not given) displays Percent Effect of 25.6

According to the records, this molecule CC(C)c1nnc(CN2CCN(C(C)c3nc(C4CC4)no3)CC2)o1 (stereo not given) displays Percent Effect of 138.5
